- study target: Muscarinic acetylcholine receptor M1 (Homo sapiens, UniProt P11229)
- Sequence (P11229 whole entry): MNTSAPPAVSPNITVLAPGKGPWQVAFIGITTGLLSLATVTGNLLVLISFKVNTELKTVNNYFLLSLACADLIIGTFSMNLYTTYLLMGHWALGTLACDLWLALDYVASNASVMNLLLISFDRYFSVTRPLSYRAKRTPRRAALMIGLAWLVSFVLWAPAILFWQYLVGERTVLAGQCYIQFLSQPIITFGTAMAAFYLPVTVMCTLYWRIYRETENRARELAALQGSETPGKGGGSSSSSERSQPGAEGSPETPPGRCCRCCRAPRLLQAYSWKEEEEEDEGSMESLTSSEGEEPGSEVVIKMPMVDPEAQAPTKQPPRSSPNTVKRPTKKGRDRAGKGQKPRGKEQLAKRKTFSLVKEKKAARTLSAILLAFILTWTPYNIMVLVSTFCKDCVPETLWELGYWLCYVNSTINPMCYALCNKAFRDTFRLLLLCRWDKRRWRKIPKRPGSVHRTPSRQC
- protocol text: Binding affinity against Muscarinic acetylcholine receptor M1
For each of the molecules below, state its Ki.
Answer with the figure and its unit, nothing else.

Look over these answered cases.
C=C(c1ccc(Sc2ccc(OC)cc2)cc1)C1CCN(C2CCCCC2)CC1: 4.4 nM
COc1ccc([S+]([O-])c2ccc(C(C)C3CCN(C4CCCCC4)CC3)cc2)cc1 (stereo not drawn): 0.53 nM
C=C(c1ccc([S@@+]([O-])c2ccc(OC)cc2)cc1)C1CCN(C2CCCCC2)CC1: 0.68 nM
COc1ccc([S@+]([O-])c2ccc(C(C#N)C3CCN(C4CCCCC4)CC3)cc2)cc1 (stereo partly drawn): 136 nM
COc1ccc([S@@+]([O-])c2ccc(C(C#N)C3CCN(C4CCCCC4)CC3)cc2)cc1 (stereo partly drawn): 113 nM
COc1ccc([S@@+]([O-])c2ccc(C(=O)C3CCN(C4CCCCC4)CC3)cc2)cc1: 104 nM
COc1ccc([S+]([O-])c2ccc(C(C)N3CCN(C4CCCCC4)CC3)cc2)cc1 (stereo not drawn): 6 nM

Shifting focus to the molecule that follows.
Exercise: Fill in the blank: the reported Ki of `C=C(c1ccc(S(=O)(=O)c2ccc(OC)cc2)cc1)C1CCN(C2CCCCC2)CC1` is ____.
Key: 2.8 nM
